Cited source for all entries: the supplement of paper PMC10567573

B1: TNXB (parent)
chain: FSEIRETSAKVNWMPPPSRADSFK

Variants of: B1
Assay: protein stability index of a GFP-peptide fusion (GPS, HEK-293T) (PSI 1-6); higher = more stable;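 note: lentivirally expressed fusions sorted by FACS into six bins by GFP to DsRed ratio, PSI derived from sequencing read proportions per bin multiplied by bin number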
Settings: c terminus: a fixed tail appended
For each record, write down the corresponding protein stability index.
The response must contain the number and no unit.

Param item = FSEIRETSAKVNWMPDPSRADSFK [P16D] ; retrieve measured protein stability index.
3.03

Param item = FSEIRETSAKVNWMPPPVRADSFK [S18V] ; retrieve measured protein stability index.
3.32

Param item = FSEIRETSAKVNWMPPPSRADSVK [F23V] ; retrieve measured protein stability index.
4.07

Param item = ASEIRETSAKVNWMPPPSRADSFK [F1A] ; retrieve measured protein stability index.
4.29

Param item = FSNIRETSAKVNWMPPPSRADSFK [E3N] ; retrieve measured protein stability index.
3.2

Param item = FSEIRETSAKVNWMPPISRADSFK [P17I] ; retrieve measured protein stability index.
3.36

Param item = FSEIRETSAKWNWMPPPSRADSFK [V11W] ; retrieve measured protein stability index.
2.73

Param item = FSEIRETSAKVNWMPPQSRADSFK [P17Q] ; retrieve measured protein stability index.
3.24

Param item = FSEIRGTSAKVNWMPPPSRADSFK [E6G] ; retrieve measured protein stability index.
3.03

Param item = FSEIRETSAKVNWMPCPSRADSFK [P16C] ; retrieve measured protein stability index.
3.14

Param item = FSEIRETSAKVNWMPPPSRAESFK [D21E] ; retrieve measured protein stability index.
3.79

Param item = FSEIRETSAKVNWMPPPIRADSFK [S18I] ; retrieve measured protein stability index.
2.46
